Data provenance: patent US20110197293A1

# System: TRPM2-AS transcript
# procedureText: qPCR of TRPM2-AS transcript after siRNA transfection in Mel Im cells
# Format: cell-based, human
# experimentalConditions: siRNA 10 nM, harvested at 24 hours, respect to mock-transfected cells
measuredAttribute: knock-down of TRPM2-AS transcript expression (%)
Write down the numeric answer in % and omit the unit.

# annotated cases, reported knock-down of TRPM2-AS transcript expression shown
### Prompt Param item = 5′-CCACUUACUCAUCCAAGAA(dTdT)-3′ [TRPM2-AS—734] ; retrieve measured knock-down of TRPM2-AS transcript expression.
### Response 75

### Prompt Param item = 5′-CCAGUAACUCCGCCCAAAU(dTdT)-3′ [TRPM2-AS—657] ; retrieve measured knock-down of TRPM2-AS transcript expression.
### Response 69

Proceed to the following item.
### Prompt Param item = 5′-GAAGGACCACAGAGGAAGU(dTdT)-3′ [TRPM2-TE—55] ; retrieve measured knock-down of TRPM2-AS transcript expression.
### Response 30
